measured-parameter: melting point

Cc1ccc(NC(=O)c2ccc(CN3CCN(C)CC3)c(Br)c2)cc1Nc1nccc(-c2cnccn2)n1: 213 to 214 °C (dec.)

What does the record list as melting point for `COc1cc(C(=O)Nc2ccc(C)c(Nc3nccc(-c4cccnc4)n3)c2)cc(OC)c1CN1CCN(C)CC1` ? 201 to 214 °C (dec.)

What does the record list as melting point for `Cc1ccc(NC(=O)c2ccc(CN3CCN(C)CC3)c(Br)c2)cc1Nc1nccc(-c2ccc(Cl)nc2)n1` ? 219 to 222 °C (dec.)

What does the record list as melting point for `Cc1ccc(NC(=O)c2ccc(CN3CCN(C)CC3)c(Br)c2)cc1Nc1nccc(-c2cncnc2)n1.Cl` ? 184 to 186 °C (dec.)

What does the record list as melting point for `Cc1ccc(NC(=O)c2cc(Br)c(CN3CCN(C)CC3)c(Br)c2)cc1Nc1nccc(-c2cccnc2)n1` ? 227 to 229 °C

What does the record list as melting point for `Cc1ccc(NC(=O)c2ccc(CN3CCN(C)CC3)c(Br)c2)cc1Nc1nccc(-c2cccnn2)n1` ? 185 to 187 °C (dec.)

What does the record list as melting point for `Cc1ccc(NC(=O)c2ccc(CN3CCN(C)CC3)c(Cl)c2)cc1Nc1nccc(-c2cccnc2)n1` ? 193 to 194 °C (dec.)

====

Consider the following compounds and their measured melting point readings.

Use these answered entries as a reference point.
Cc1ccc(NC(=O)c2ccc(CN(C)C)c(Br)c2)cc1Nc1nccc(-c2cccnc2)n1: 154 to 155 °C
Cc1ccc(NC(=O)c2ccc(CN3CCN(C)CC3)c(Br)c2)cc1Nc1nccc(-c2cncc(Br)c2)n1: 194 to 195 °C (dec.)
Cc1ccc(NC(=O)c2ccc(CN3CCN(C)CC3)c(C(F)(F)F)c2)cc1Nc1nccc(-c2cncnc2)n1: 231 to 233 °C (dec.)
Cc1ccc(NC(=O)c2ccc(CN3CCN(C)CC3)c(Br)c2)cc1Nc1cncc(-c2cccnc2)n1 (hydrate or solvate): 192 to 193 °C
CS(=O)(=O)O.Cc1ccc(NC(=O)c2ccc(CN3CCN(C)CC3)c(C(F)(F)F)c2)cc1Nc1nccc(-c2cncnc2)n1: 171 to 173 °C
CCCN1CCN(Cc2ccc(C(=O)Nc3ccc(C)c(Nc4nccc(-c5cccnc5)n4)c3)cc2Br)CC1: 204 to 205 °C

We next turn to a different compound, shown below.
What does the record list as melting point for Cc1ccc(NC(=O)c2ccc(CN3CCN(C)CC3)c(Br)c2)cc1Nc1nncc(-c2cccnc2)n1 (hydrate or solvate) ? 219 to 221 °C

====

Consider the following compounds and their measured melting point readings.

Cc1ccc(NC(=O)c2ccc(CN3CCN(C)CC3)c(Br)c2)cc1Nc1cncc(-c2cccnc2)c1 (hydrate or solvate): 139 to 141 °C
COc1cc(C(=O)Nc2ccc(C)c(Nc3nccc(-c4cccnc4)n3)c2)ccc1CN1CCN(C)CC1: 171 to 172 °C (dec.)
Cc1ccc(NC(=O)c2ccc(CN3CCCN(C)CC3)c(Br)c2)cc1Nc1nccc(-c2cccnc2)n1: 156 to 157 °C
Cc1cc(C(=O)Nc2ccc(C)c(Nc3nccc(-c4cccnc4)n3)c2)ccc1CN1CCN(C)CC1: 192 to 193 °C
Cc1ccc(NC(=O)c2ccc(CN3CCN(C)CC3)c(Br)c2)cc1Nc1cc(-c2cccnc2)ccn1: 244 to 245 °C (dec.)
Cc1ccc(NC(=O)c2ccc(CN3CCN(C)CC3)c(C(=O)N(C)C)c2)cc1Nc1nccc(-c2cccnc2)n1: 210 to 214 °C (dec.)

We next turn to a different compound, shown below.
What does the record list as melting point for CCN1CCN(Cc2ccc(C(=O)Nc3ccc(C)c(Nc4nccc(-c5cccnc5)n4)c3)cc2Br)CC1 (hydrate or solvate) ? 202 to 203 °C

====

measured-parameter: melting point

COC(=O)c1cc(C(=O)Nc2ccc(C)c(Nc3nccc(-c4cccnc4)n3)c2)ccc1CN1CCN(C)CC1: 159 to 161 °C (dec.)
Cc1ccc(NC(=O)c2ccc(CN3C[C@@H](C)N[C@@H](C)C3)c(Br)c2)cc1Nc1nccc(-c2cccnc2)n1: 204 to 205 °C
Cc1ccc(NC(=O)c2ccc(CN3CCN(C)CC3)c(I)c2)cc1Nc1nccc(-c2cccnc2)n1: 199 to 200 °C (dec.)

We next turn to a different compound, shown below.
What does the record list as melting point for `CCN(CC)Cc1ccc(C(=O)Nc2ccc(C)c(Nc3nccc(-c4cccnc4)n3)c2)cc1Br` ? 172 to 173 °C

====

- Tested on: U937 cells
- experiment-notes: Cell growth inhibitory effect, U937 cells (WST-8, 72 hours)
- recorded-conditions: Homo sapiens, U-937, 72 h, read-out: U937 cells (IC50 value: μM)
measured-parameter: IC50 (µM)

Cc1ccc(NC(=O)c2ccc(CN3CCN(C)CC3)c(F)c2)cc1Nc1nccc(-c2cccnc2)n1 [Example 4]: 12.4

(a) COc1cc(C(=O)Nc2ccc(C)c(Nc3nccc(-c4cccnc4)n3)c2)cc(OC)c1CN1CCN(C)CC1 [Example 25]
(b) Cc1ccc(NC(=O)c2ccc(CN3CCN(C)CC3)c(I)c2)cc1Nc1nccc(-c2cccnc2)n1 [Example 2]
Compare the recorded IC50 of a and b ; state which is larger. Mark your answer with the label of the selected entry. a

====

- system-tested: E255K mutant BCR-ABL (Homo sapiens, UniProt P00519, E255K)
- Construct: expressed in transfected cells; host or cells: 293T cells (ATCC), Lipofectamine transfection; the other entry of the earlier key: BCR (P11274, Breakpoint cluster region protein)
- Sequence (P00519 28-1130 E255K limits assumed): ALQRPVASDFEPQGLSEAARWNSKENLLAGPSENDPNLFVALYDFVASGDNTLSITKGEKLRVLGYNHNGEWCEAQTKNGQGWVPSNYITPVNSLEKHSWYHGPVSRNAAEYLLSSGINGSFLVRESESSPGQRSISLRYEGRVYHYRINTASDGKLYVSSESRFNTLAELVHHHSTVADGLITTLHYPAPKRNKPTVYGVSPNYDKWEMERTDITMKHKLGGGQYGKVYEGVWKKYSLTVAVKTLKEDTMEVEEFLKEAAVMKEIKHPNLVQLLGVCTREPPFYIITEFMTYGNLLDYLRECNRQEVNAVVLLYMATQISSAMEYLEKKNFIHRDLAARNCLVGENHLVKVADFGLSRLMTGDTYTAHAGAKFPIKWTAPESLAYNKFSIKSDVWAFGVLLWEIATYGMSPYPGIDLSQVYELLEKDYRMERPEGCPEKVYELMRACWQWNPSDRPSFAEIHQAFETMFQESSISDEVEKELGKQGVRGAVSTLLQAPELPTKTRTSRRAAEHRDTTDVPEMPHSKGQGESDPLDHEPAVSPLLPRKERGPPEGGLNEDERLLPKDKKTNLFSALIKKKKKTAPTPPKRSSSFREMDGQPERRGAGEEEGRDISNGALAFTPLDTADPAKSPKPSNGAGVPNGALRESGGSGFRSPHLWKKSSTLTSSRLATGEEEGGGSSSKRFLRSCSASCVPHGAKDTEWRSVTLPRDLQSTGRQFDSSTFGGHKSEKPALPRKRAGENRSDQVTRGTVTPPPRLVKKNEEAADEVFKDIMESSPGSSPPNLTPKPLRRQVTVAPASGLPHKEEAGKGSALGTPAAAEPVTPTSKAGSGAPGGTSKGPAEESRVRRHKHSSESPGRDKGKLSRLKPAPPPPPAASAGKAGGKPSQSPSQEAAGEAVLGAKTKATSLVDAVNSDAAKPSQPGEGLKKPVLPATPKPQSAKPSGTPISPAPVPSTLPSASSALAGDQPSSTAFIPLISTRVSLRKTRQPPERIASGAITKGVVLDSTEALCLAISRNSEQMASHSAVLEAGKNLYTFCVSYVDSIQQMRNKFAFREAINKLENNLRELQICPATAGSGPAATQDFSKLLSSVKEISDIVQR
- experiment-notes: Self-phosphorylation inhibitory effect on mutant (E255K) BCR-ABL in transfected 293T cells (Western blot, PY99); also: key: +++: almost perfectly inhibition of phosphorylation; ++: around half of inhibition; +: week inhibition; −: no inhibition
- Type: cell-based
- recorded-conditions: 3 μM, 2 hours
measured-parameter: Self-phosphorylation inhibitory effect on E255K mutant BCR-ABL

Cc1ccc(NC(=O)c2ccc(CN3CCN(C)CC3)c(Br)c2)cc1Nc1nccc(-c2cnccn2)n1: ++
Cc1ccc(NC(=O)c2ccc(CN3CCN(C)CC3)c(C(F)(F)F)c2)cc1Nc1nccc(-c2cncc(Br)c2)n1: +++
Cc1ccc(NC(=O)c2ccc(CN3CCN(C)CC3)c(Br)c2)cc1Nc1nccc(-c2cncnc2)n1: +++
Cc1ccc(NC(=O)c2ccc(CN3CCN(C)CC3)c(Br)c2)cc1Nc1nccc(-c2cncc(Br)c2)n1: ++
Cc1ccc(NC(=O)c2ccc(CN3CCN(C)CC3)c(I)c2)cc1Nc1nccc(-c2cccnc2)n1: ++

We next turn to a different molecule, shown below.
API: value(readout=Self-phosphorylation inhibitory effect on E255K mutant BCR-ABL, system=E255K mutant BCR-ABL (Homo sapiens, UniProt P00519, E255K)) for record `Cc1ccc(NC(=O)c2ccc(CN3CCN(C)CC3)c(Cl)c2)cc1Nc1nccc(-c2cccnc2)n1` +

====

- Test system: U937 cells
- experiment-notes: Cell growth inhibitory effect, U937 cells (WST-8, 72 hours)
- recorded-conditions: Homo sapiens, U-937, 72 h, read-out: U937 cells (IC50 value: μM)
measured-parameter: IC50 (µM)

Use these answered entries as a reference point.
Cc1ccc(NC(=O)c2ccc(CN3CCN(C)CC3)c(Cl)c2)cc1Nc1nccc(-c2cccnc2)n1 [Example 3]: 5.01
CCN1CCN(Cc2ccc(C(=O)Nc3ccc(C)c(Nc4nccc(-c5cccnc5)n4)c3)cc2Br)CC1 [Example 27]: 7.16
Cc1ccc(NC(=O)c2ccc(CN3CCN(C)CC3)c(C(F)(F)F)c2)cc1Nc1nccc(-c2cncnc2)n1 [Example 6]: 5.39

(1) Cc1ccc(NC(=O)c2ccc(CN3CCN(C)CC3)c([N+](=O)[O-])c2)cc1Nc1nccc(-c2cccnc2)n1 [Example 22]
(2) Cc1ccc(NC(=O)c2ccc(CN3CCN(C)CC3)c(C#N)c2)cc1Nc1nccc(-c2cccnc2)n1 [Example 40]
(3) Cc1ccc(NC(=O)c2ccc(CN3CCN(C)CC3)c(Br)c2)cc1Nc1cncc(-c2cccnc2)n1 [Example 19]
Rank order required: IC50, descending. Your task in answering is to list the labels in the requested order. 1, 2, 3
(1: 6.56 µM, 2: 4.2 µM, 3: 2.4 µM)
